# measurement-target: human FXR (NR1H4) (Homo sapiens, UniProt Q96RI1)
# Sequence (Q96RI1 whole entry, the tested form may be a part): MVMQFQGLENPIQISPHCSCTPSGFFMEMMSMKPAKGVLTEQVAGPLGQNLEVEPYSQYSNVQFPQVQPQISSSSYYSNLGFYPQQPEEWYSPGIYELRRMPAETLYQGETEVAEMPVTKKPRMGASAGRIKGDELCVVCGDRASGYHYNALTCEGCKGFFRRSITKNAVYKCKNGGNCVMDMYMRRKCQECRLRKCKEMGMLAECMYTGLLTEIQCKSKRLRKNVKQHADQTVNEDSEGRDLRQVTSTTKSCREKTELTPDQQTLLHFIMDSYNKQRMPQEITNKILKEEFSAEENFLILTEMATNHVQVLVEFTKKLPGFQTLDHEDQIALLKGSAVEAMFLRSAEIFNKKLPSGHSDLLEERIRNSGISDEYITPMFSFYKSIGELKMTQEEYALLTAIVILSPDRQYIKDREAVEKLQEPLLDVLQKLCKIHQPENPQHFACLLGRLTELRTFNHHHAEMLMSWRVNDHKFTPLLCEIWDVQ
# protocol-details: Human FXR (NR1H4) Assay (Gal4 promoter driven luciferase reporter, Indigo Bioscience kit IB00601)
# test-settings: CHO reporter cells expressing human NR1H4; luciferase; 22 hours incubation; potency ranges
pEC50: −log10 of the molar value.
Listed compounds paired with reported pEC50
measure: pEC50

1. CC(C)Oc1cc(C(=O)O)cc2sc(N[C@@H]3CO[C@H]4[C@@H]3OC[C@H]4OCc3c(-c4c(Cl)cccc4Cl)noc3C3CC3)nc12 [Example 19]: 6.00 to 6.70
2. O=C(NS(=O)(=O)C1CC1)c1ccc2nc(O[C@@H]3CO[C@H]4[C@@H]3OC[C@H]4OCc3c(-c4c(Cl)cccc4Cl)noc3C3CC3)sc2c1 [Example 9]: 6.00 to 6.70
3. CC(C)Oc1cc(C(=O)NS(=O)(=O)C2CC2)cc2sc(O[C@@H]3CO[C@H]4[C@@H]3OC[C@@H]4OCc3c(-c4c(Cl)cccc4Cl)noc3C3CC3)nc12 [Example 3]: 6.00 to 6.70
4. O=C(O)c1ccc2nc(O[C@@H]3CO[C@H]4[C@@H]3OC[C@@H]4OCc3c(-c4c(Cl)cccc4Cl)noc3C3CC3)sc2c1 [Example 4]: 6.00 to 6.70
5. CC(C)Oc1cc(C(=O)NS(=O)(=O)C2CC2)cc2sc(O[C@@H]3CO[C@H]4[C@@H]3OC[C@H]4OCc3c(-c4c(Cl)cccc4Cl)noc3C3CC3)nc12 [Example 11]: 6.70 to 7.52
6. CC(C)Oc1cc(C(=O)O)cc2sc(N3CCN4C(=O)[C@H](OCc5c(-c6c(Cl)cccc6Cl)noc5C5CC5)C[C@H]4C3)nc12 [Example 30]: 6.70 to 7.52

----------
# measurement-target: human FXR (NR1H4) (Homo sapiens)
# protocol-details: Human FXR (NR1H4) Assay (Gal4 promoter driven luciferase reporter, Indigo Bioscience kit IB00601)
# test-settings: CHO reporter cells expressing human NR1H4; luciferase; 22 hours incubation; potency ranges
Listed here are compounds together with their documented EC50.
measure: EC50

1. O=C(O)c1cc(F)c2nc(O[C@@H]3CO[C@H]4[C@@H]3OC[C@H]4OCc3c(-c4c(Cl)cccc4Cl)noc3C3CC3)sc2c1 [Example 5]: 0.03 to 0.2 µM
2. CC(C)Oc1cc(C(=O)O)cc2sc(N3CCN4C[C@H](OCc5c(-c6c(Cl)cccc6Cl)noc5C5CC5)C[C@H]4C3)nc12 [Example 21]: 0.03 to 0.2 µM
3. CC(C)Oc1cc(C(=O)O)cc2sc(N3CCN4C[C@H](OCc5c(-c6c(Cl)cccc6Cl)noc5C5CC5)C[C@@H]4C3)nc12 [Example 22]: 0.03 to 0.2 µM

----------
// values below are reported Emax
# measurement-target: human FXR (NR1H4) (Homo sapiens)
# Construct: host or cells: CHO (Chinese hamster ovary) reporter cells
# protocol-details: Human FXR (NR1H4) Assay (Gal4 promoter driven luciferase reporter, Indigo Bioscience kit IB00601)
# Type: cell-based
# test-settings: read-out: Efficacy (%)
measure: Emax (%)

1. CC(C)Oc1cc(C(=O)O)cc2sc([C@]3(F)CO[C@@H]4[C@H](OCc5c(-c6c(Cl)cccc6Cl)noc5C5CC5)CO[C@@H]43)nc12: 45
2. CC(C)Oc1cc(C(=O)O)cc2sc(N3CCN4C(=O)[C@@H](OCc5c(-c6c(Cl)cccc6Cl)noc5C5CC5)C[C@H]4C3)nc12: 110
3. CC(C)Oc1cc(C(=O)O)cc2sc(N3C[C@H]4C[C@@H](NCc5c(-c6c(Cl)cccc6Cl)noc5C5CC5)C[C@H]4C3)nc12: 57
4. CC(C)Oc1cc(C(=O)O)cc2sc(N3C[C@H]4[C@@H](OCc5c(-c6c(Cl)cccc6Cl)noc5C5CC5)CO[C@H]4C3)nc12: 7
5. CC1(S(=O)(=O)NC(=O)c2ccc3nc(O[C@@H]4CO[C@H]5[C@@H]4OC[C@H]5OCc4c(-c5c(Cl)cccc5Cl)noc4C4CC4)sc3c2)CC1: 20
6. CC(C)Oc1cc(C(=O)O)cc2sc(N3CCN4C[C@H](OCc5c(-c6c(Cl)cccc6Cl)noc5C5CC5)C[C@@H]4C3)nc12: 82
7. O=C(O)c1ccc2nc(O[C@@H]3CO[C@H]4[C@@H]3OC[C@H]4OCc3c(-c4c(Cl)cccc4Cl)noc3C3CC3)sc2c1: 67.5
8. CC(C)Oc1cc(C(=O)O)cc2sc(O[C@@H]3CO[C@H]4[C@@H]3OC[C@H]4OCc3c(-c4ccccc4OC(F)(F)F)noc3C3CC3)nc12: 103
9. O=C(O)c1ccc2nc(O[C@@H]3CO[C@H]4[C@@H]3OC[C@@H]4OCc3c(-c4c(Cl)cccc4Cl)noc3C3CC3)sc2c1: 40
10. O=C(O)c1cc(F)c2nc(O[C@@H]3CO[C@H]4[C@@H]3OC[C@H]4OCc3c(-c4ccccc4OC(F)(F)F)noc3C3CC3)sc2c1: 56
11. CC(C)Oc1cc(C(=O)NS(=O)(=O)N2CCCC2)cc2sc(O[C@@H]3CO[C@H]4[C@@H]3OC[C@H]4OCc3c(-c4c(Cl)cccc4Cl)noc3C3CC3)nc12: 103
12. CC(C)Oc1cc(C(=O)O)cc2sc([C@@]3(O)CO[C@@H]4[C@H](OCc5c(-c6c(Cl)cccc6Cl)noc5C5CC5)CO[C@@H]43)nc12: 9
13. CC(C)Oc1cc(C(=O)O)cc2sc(N3CCN4C[C@@H](OCc5c(-c6c(Cl)cccc6Cl)noc5C5CC5)C[C@@H]4C3)nc12: 44
14. CC(C)Oc1cc(C(=O)NS(=O)(=O)N2CCCCC2)cc2sc(O[C@@H]3CO[C@H]4[C@@H]3OC[C@H]4OCc3c(-c4c(Cl)cccc4Cl)noc3C3CC3)nc12: 96.5
15. CC(C)Oc1cc(C(=O)NS(=O)(=O)C2CC2)cc2sc(O[C@@H]3CO[C@H]4[C@@H]3OC[C@H]4OCc3c(-c4ccccc4OC(F)(F)F)noc3C3CC3)nc12: 66
16. CC(C)Oc1cc(C(=O)O)cc2sc(N[C@@H]3CO[C@H]4[C@@H]3OC[C@H]4OCc3c(-c4c(Cl)cccc4Cl)noc3C3CC3)nc12: 82.3
17. O=C(O)c1ccc2nc(O[C@@H]3CO[C@H]4[C@@H]3OC[C@H]4OCc3c(-c4c(Cl)cccc4Cl)noc3C3CC3)ccc2c1: 85
18. O=C(O)c1cc(F)c2nc(O[C@@H]3CO[C@H]4[C@@H]3OC[C@H]4OCc3c(-c4c(Cl)cccc4Cl)noc3C3CC3)sc2c1: 55
